These measurements were taken from PubChem BioAssay (NCI).

experiment: NCI Yeast Anticancer Drug Screen. Data for the sgs1 mgt1 strain (AID 161);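 also: 0% = growth of cultures given vehicle only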; conditions: S. cerevisiae sgs1 mgt1 strain, at 50.0 µM, stronger effect = higher value
Compounds without any hit were thinned out: in the full panel of roughly 79,000, 15% have a hit.
Please use y whenever growth inhibition is not below 70%, and n whenever it is.

molecule=CC(=O)NC1=C(Cl)C(=O)c2ccccc2C1=O group_label=y

Query :: Determine whether measured growth inhibition meets or exceeds 70% for `O=c1c2ccccc2nc(-c2ccccc2)n1NC(=S)Nc1ccc(Cl)cc1[N+](=O)[O-]`
Result :: n

====

test: NCI Yeast Anticancer Drug Screen. Data for the bub3 strain (AID 167); details: S. cerevisiae bub3 mutant strain, at 5.0 µM (retest, dose inferred, filed as 0.5), stronger effect = higher value
Compounds without any hit were thinned out: in the full panel of roughly 79,000, 15% have a hit.
For each record, write down the corresponding growth inhibition.
Answers are plain numbers, in %.

molecule=COc1ccc(/C=C2\N=C(c3ccco3)OC2=O)cc1Br units_symbol=% quantitative_result=5
molecule=O=C([O][Sb]([O]C(=O)C(Cl)(Cl)Cl)([c]1ccccc1)([c]1ccccc1)[c]1ccccc1)C(Cl)(Cl)Cl units_symbol=% quantitative_result=6
molecule="COC(=O)C1=CCC[C@H]2C1(C)CCC(C)C21CC(c2ccoc2)OC1=O (some centres not stated)" units_symbol=% quantitative_result=-8

Hello, I would appreciate it if you could give growth inhibition for each entry below.
1. Oc1ccc(Cc2ccccc2)cc1Cl
2. Cc1ccccc1NC(=O)C1C(=O)N(c2ccccc2C)C(=O)/C1=N/O (configuration not stated)

Result ::
-6
0

Hello, I would appreciate it if you could give growth inhibition for each entry below.
1. Cc1cccc(Cl)c1NC(=S)Nc1cccc(C(F)(F)F)c1
2. CC1(c2ccc(S(=O)(=O)c3ccccc3)cc2)OC(=O)C=CC1=O (configuration not stated)
3. CCC(=NCCCCCCN=C(CC)c1cc(C)cc([N+](=O)[O-])c1O)c1cc(C)cc([N+](=O)[O-])c1O.[Fe]
4. COc1ccc(/C=C2/C(=O)ON=C2C)cc1OC
5. c1ccc2c3[nH]c(c2c1)=Nc1ccc(cc1)-c1nc2ccc(cc2o1)N=c1[nH]c(c2ccccc12)=Nc1ccc2nc(oc2c1)-c1ccc(cc1)N=3
6. CCCOC1=C(Cl)C(=O)c2cccc([N+](=O)[O-])c2C1=O

Result ::
20
94
-1
-3
31
97

====

For each record, write down the corresponding growth inhibition.
experiment: NCI Yeast Anticancer Drug Screen. Data for the mec2-1 strain (AID 157); details: S. cerevisiae mec2-1 strain, at 50.0 µM, stronger effect = higher value
This is part of a sample that, as a whole, favours compounds with a hit. Of some 79,000 tested, about 15% had one in any assay.
One number for each entry, in %.

Past entries and their recorded results:
compound="O=S1Nc2ccccc2S1 (stereo unspecified)" quantitative_result=85.2
compound=O=C(O)c1ccc([N+](=O)[O-])o1 quantitative_result=25.1
compound=CCCCCC(C)(C)N=C=S quantitative_result=-1.65
compound=c1ccc(CCC2=Nc3ccccc3CO2)cc1 quantitative_result=-6.5

Hello, I would appreciate it if you could give growth inhibition for each entry below.
1. CCc1c(C(=O)OC)c(C(=O)OC)c(-c2ccccc2)n1CCn1c(CC)c(C(=O)OC)c(C(=O)OC)c1-c1ccccc1
2. CCCCCCCCCCCCc1ccc(S(=O)(=O)O)cc1.[Zn+2]

Result ::
38.2
13.2
